Assay details: activity coefficient (dimensionless); of the first substance listed, at infinite dilution; xn = mol fraction of the nth substance listed
Condition summary: 368.15 K; 101 kPa; Liquid; Chromatography; x1 = 0
Exercise: for every item that follows, state its recorded activity coefficient.
# print the numeric value only

QUERY: Would you kindly share the measured activity coefficient for CCCCCCCCC [nonane] + O=S(=O)([N-]S(=O)(=O)C(F)(F)F)C(F)(F)F.OCCC[n+]1ccccc1 ?
RESULT: 99.7

QUERY: Would you kindly share the measured activity coefficient for C1=CCCCC1 [cyclohexene] + O=S(=O)([N-]S(=O)(=O)C(F)(F)F)C(F)(F)F.OCCC[n+]1ccccc1 ?
RESULT: 8.52

QUERY: Would you kindly share the measured activity coefficient for C1COCCO1 [1,4-dioxane] + O=S(=O)([N-]S(=O)(=O)C(F)(F)F)C(F)(F)F.OCCC[n+]1ccccc1 ?
RESULT: 0.647

QUERY: Would you kindly share the measured activity coefficient for Cc1cccc(C)c1 [1,3-dimethylbenzene] + O=S(=O)([N-]S(=O)(=O)C(F)(F)F)C(F)(F)F.OCCC[n+]1ccccc1 ?
RESULT: 3.61

====

Assay details: activity coefficient (dimensionless); of the first substance listed, at infinite dilution; xn = mol fraction of the nth substance listed
Condition summary: 338.15 K; 101 kPa; Liquid; Chromatography; x1 = 0
Readout label: activity coefficient
# print the numeric value only

QUERY: Would you kindly share the measured activity coefficient for Cc1ccc(C)cc1 [1,4-dimethylbenzene] + O=S(=O)([N-]S(=O)(=O)C(F)(F)F)C(F)(F)F.OCCC[n+]1ccccc1 ?
RESULT: 3.61

QUERY: Would you kindly share the measured activity coefficient for CCO [ethanol] + O=S(=O)([N-]S(=O)(=O)C(F)(F)F)C(F)(F)F.OCCC[n+]1ccccc1 ?
RESULT: 1.06

QUERY: Would you kindly share the measured activity coefficient for C1CCOC1 [tetrahydrofuran] + O=S(=O)([N-]S(=O)(=O)C(F)(F)F)C(F)(F)F.OCCC[n+]1ccccc1 ?
RESULT: 0.757

QUERY: Would you kindly share the measured activity coefficient for CCCCCC [hexane] + O=S(=O)([N-]S(=O)(=O)C(F)(F)F)C(F)(F)F.OCCC[n+]1ccccc1 ?
RESULT: 38.5

====

Exercise: for every item that follows, state its recorded activity coefficient.
Assay details: activity coefficient (dimensionless); of the first substance listed, at infinite dilution; xn = mol fraction of the nth substance listed
Condition summary: 308.15 K; 101 kPa; Liquid; Chromatography; x1 = 0
# print the numeric value only

QUERY: Would you kindly share the measured activity coefficient for C1CCCCC1 [cyclohexane] + O=S(=O)([N-]S(=O)(=O)C(F)(F)F)C(F)(F)F.OCCC[n+]1ccccc1 ?
RESULT: 25.5

QUERY: Would you kindly share the measured activity coefficient for C=CCCCCCCCC [1-decene] + O=S(=O)([N-]S(=O)(=O)C(F)(F)F)C(F)(F)F.OCCC[n+]1ccccc1 ?
RESULT: 142

QUERY: Would you kindly share the measured activity coefficient for C1=CCCCC1 [cyclohexene] + O=S(=O)([N-]S(=O)(=O)C(F)(F)F)C(F)(F)F.OCCC[n+]1ccccc1 ?
RESULT: 11.7

QUERY: Would you kindly share the measured activity coefficient for C=CCCCCCC [oct-1-ene] + O=S(=O)([N-]S(=O)(=O)C(F)(F)F)C(F)(F)F.OCCC[n+]1ccccc1 ?
RESULT: 58

QUERY: Would you kindly share the measured activity coefficient for C=CCCCCC [1-heptene] + O=S(=O)([N-]S(=O)(=O)C(F)(F)F)C(F)(F)F.OCCC[n+]1ccccc1 ?
RESULT: 35.7

QUERY: Would you kindly share the measured activity coefficient for CCOCC [diethyl ether] + O=S(=O)([N-]S(=O)(=O)C(F)(F)F)C(F)(F)F.OCCC[n+]1ccccc1 ?
RESULT: 2.71

QUERY: Would you kindly share the measured activity coefficient for C#CCCCCC [1-heptyne] + O=S(=O)([N-]S(=O)(=O)C(F)(F)F)C(F)(F)F.OCCC[n+]1ccccc1 ?
RESULT: 10.1

QUERY: Would you kindly share the measured activity coefficient for CCCCCCC [heptane] + O=S(=O)([N-]S(=O)(=O)C(F)(F)F)C(F)(F)F.OCCC[n+]1ccccc1 ?
RESULT: 82

QUERY: Would you kindly share the measured activity coefficient for CCC(C)(C)C [2,2-dimethylbutane] + O=S(=O)([N-]S(=O)(=O)C(F)(F)F)C(F)(F)F.OCCC[n+]1ccccc1 ?
RESULT: 41

QUERY: Would you kindly share the measured activity coefficient for C=CCCC [1-pentene] + O=S(=O)([N-]S(=O)(=O)C(F)(F)F)C(F)(F)F.OCCC[n+]1ccccc1 ?
RESULT: 14.2

Reference source for all entries: the NIST ThermoML archive (doi:10.1016/j.jct.2011.04.018)
